study-system: T1, cynomolgus monkey IL-6 (Macaca fascicularis, UniProt P79341)
T1 construct: His
T1 sequence (P79341 28-212): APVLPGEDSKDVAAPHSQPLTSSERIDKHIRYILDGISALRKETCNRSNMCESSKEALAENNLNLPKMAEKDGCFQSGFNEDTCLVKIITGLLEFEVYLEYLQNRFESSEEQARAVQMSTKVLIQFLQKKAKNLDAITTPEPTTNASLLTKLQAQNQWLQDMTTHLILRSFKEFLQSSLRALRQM
run-description: Surface plasmon resonance (Biacore), cynomolgus monkey IL-6
Type: binding
setup-conditions: cy/cyno; periplasmic fractions, 29B11 chain shuffled
metric: ka
Record the result as a number with its unit.

| molecule | reading |
| --- | --- |
| 47C2 (R4): 29B11 chain shuffled Fab, periplasmic fraction (antibody, listed as Lama glama, V domains shown) VH: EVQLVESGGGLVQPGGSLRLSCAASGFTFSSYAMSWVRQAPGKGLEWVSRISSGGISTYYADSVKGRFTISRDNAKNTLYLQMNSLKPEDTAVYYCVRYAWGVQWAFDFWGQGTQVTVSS VL: ALSYDLTQPPSVSGSPGKTVTISCAGTSSDVGYGNYVSWYQQLPGMAPKILIYDVNKRASGIADRFSGSKSGNTASLTISGLQSEDEADYYCASYRRGETIVFGGGTHLTVLG | 851000 M⁻¹ s⁻¹ |
| 48C10: 29B11 chain shuffled Fab, periplasmic fraction (antibody, listed as Lama glama, V domains shown) VH: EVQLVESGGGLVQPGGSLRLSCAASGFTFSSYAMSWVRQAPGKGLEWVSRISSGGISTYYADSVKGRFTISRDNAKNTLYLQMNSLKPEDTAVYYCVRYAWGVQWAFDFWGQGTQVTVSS VL: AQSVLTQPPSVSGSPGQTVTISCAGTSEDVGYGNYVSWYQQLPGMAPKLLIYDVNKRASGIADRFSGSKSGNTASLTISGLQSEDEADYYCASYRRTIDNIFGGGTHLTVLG | 180000 M⁻¹ s⁻¹ |
| 55E2b: 29B11 chain shuffled Fab, periplasmic fraction (antibody, V domains shown) VH: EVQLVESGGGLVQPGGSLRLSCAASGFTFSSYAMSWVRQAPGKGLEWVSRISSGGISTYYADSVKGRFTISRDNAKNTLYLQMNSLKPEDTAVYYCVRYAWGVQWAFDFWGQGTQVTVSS VL: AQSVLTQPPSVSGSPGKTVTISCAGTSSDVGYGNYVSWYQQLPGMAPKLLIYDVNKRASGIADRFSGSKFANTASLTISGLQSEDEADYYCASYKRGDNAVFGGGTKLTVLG | 468000 M⁻¹ s⁻¹ |
| 29B11: antagonistic IL-6-specific Fab clone from immunized llama (antibody, listed as Lama glama, V domains shown) VH: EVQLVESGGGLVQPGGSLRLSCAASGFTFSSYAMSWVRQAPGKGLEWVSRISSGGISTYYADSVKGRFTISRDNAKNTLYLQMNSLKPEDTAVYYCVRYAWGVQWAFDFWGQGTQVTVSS VL: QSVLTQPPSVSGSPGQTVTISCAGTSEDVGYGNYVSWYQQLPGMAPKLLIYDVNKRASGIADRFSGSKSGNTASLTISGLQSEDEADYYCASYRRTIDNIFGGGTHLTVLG | 113000 M⁻¹ s⁻¹ |
| 55C1a: 29B11 chain shuffled Fab, periplasmic fraction (antibody, V domains shown) VH: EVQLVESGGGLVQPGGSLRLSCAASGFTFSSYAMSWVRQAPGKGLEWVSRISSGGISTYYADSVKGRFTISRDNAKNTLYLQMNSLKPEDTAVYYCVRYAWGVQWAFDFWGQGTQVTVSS VL: ALNFMLTQPPSVSGSPGKTVTISCAGTSSDVGYGNYVSWYQQLPGTAPKLLIYNVNKRASGITDRFSGSKSGNTASLTISGLQSEDEADYYCASYRTGDNAAFGGGTKLTVLG | 475000 M⁻¹ s⁻¹ |

Tell me the measured ka of 55H1c: 29B11 chain shuffled Fab, periplasmic fraction (antibody, V domains shown) VH: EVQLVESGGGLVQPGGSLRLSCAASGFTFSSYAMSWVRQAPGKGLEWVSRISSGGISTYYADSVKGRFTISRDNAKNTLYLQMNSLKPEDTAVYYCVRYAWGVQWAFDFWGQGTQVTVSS VL: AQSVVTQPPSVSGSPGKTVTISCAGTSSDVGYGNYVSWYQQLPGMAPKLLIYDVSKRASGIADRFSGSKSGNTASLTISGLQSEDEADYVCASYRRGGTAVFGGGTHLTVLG , please.
1.16e+06 M⁻¹ s⁻¹
